Experiment: Fraction unbound in human plasma
Format: ADME, cell-free
Recorded Metric: fraction unbound

May I ask what fraction unbound has been recorded for Cc1nc2sc(C(=O)c3ccccc3)c(N)c2c(C)c1C ?
0.007

May I ask what fraction unbound has been recorded for Cc1nc2sc(C(=O)c3ccccc3)c(N)c2c(C)c1Cl ?
0.005 to 0.18

May I ask what fraction unbound has been recorded for Cc1cc(C)c2c(N)c(C(=O)c3ccc(F)cc3F)sc2n1 ?
0.005 to 0.18

May I ask what fraction unbound has been recorded for Cc1cc(C)c2c(N)c(C(=O)c3ccc(F)c(Cl)c3)sc2n1 ?
0.005 to 0.18

May I ask what fraction unbound has been recorded for Cc1nnc2sc(C(=O)c3ccncc3)c(N)c2c1C ?
0.005 to 0.18

----------
Target Desc: Muscarinic acetylcholine receptor M4 (Homo sapiens) (UniProt P08173)
Sequence (P08173 whole entry): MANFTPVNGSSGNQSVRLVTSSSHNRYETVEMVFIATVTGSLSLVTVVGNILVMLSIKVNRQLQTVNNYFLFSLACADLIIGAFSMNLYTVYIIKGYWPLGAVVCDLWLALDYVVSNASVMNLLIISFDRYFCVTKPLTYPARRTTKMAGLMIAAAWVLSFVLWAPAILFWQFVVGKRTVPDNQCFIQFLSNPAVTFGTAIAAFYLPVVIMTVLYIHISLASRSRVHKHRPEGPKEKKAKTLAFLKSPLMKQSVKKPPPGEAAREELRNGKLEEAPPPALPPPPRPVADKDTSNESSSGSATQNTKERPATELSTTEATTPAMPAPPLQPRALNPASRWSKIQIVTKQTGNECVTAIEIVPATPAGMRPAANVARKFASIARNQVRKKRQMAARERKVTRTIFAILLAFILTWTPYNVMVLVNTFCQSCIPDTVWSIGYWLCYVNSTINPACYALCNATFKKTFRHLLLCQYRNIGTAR
Experiment: Positive allosteric modulation activity at human M4 receptor expressed in CHO cells co-expressing Gqi5 protein assessed as potentiation of EC20 acetyl choline-induced response by calcium mobilization assay relative to acetylcholine
Type: functional, cell-based
Assignment: determine reported %max for the given compounds.
Give just the number in %; leave the unit off.

What is its %max for Muscarinic acetylcholine receptor M4 (Homo sapiens) (UniProt P08173)? Entry: Cc1cc(C)c2c(N)c(C(=O)CCc3ccncc3)sc2n1
59.1

What is its %max for Muscarinic acetylcholine receptor M4 (Homo sapiens) (UniProt P08173)? Entry: Cc1nnc2sc(C(=O)c3cccnc3)c(N)c2c1C
74

What is its %max for Muscarinic acetylcholine receptor M4 (Homo sapiens) (UniProt P08173)? Entry: COc1ccc(C(=O)c2sc3nnc(C)c(C)c3c2N)cc1
63

What is its %max for Muscarinic acetylcholine receptor M4 (Homo sapiens) (UniProt P08173)? Entry: Cc1cc(C)c2c(N)c(C(=O)c3ccc(F)c(Cl)c3)sc2n1
45

What is its %max for Muscarinic acetylcholine receptor M4 (Homo sapiens) (UniProt P08173)? Entry: Nc1c(C(=O)c2ccncc2)sc2nc(O)c3c(c12)CCCC3
63.8

----------
Experiment: Ratio of drug level in Sprague-Dawley rat brain to plasma at 0.2 to 0.25 mg/kg, iv administered as cassette dose measured 0.25 hrs post dose
Type: ADME, organism-based
Settings: brain and plasma
Assignment: determine reported Kp at 0.25 h for the given compounds.

May I ask what Kp at 0.25 h has been recorded for COc1ccc(CCC(=O)c2sc3nnc(C)c(C)c3c2N)cc1F ?
11

May I ask what Kp at 0.25 h has been recorded for Cc1cc(C)c2c(N)c(C(=O)c3ccc(O)cc3)sc2n1 ?
0.83 to 6.95

May I ask what Kp at 0.25 h has been recorded for COc1ccc(C(=O)c2sc3nnc(C)c(C)c3c2N)cc1 ?
0.83 to 6.95

May I ask what Kp at 0.25 h has been recorded for Cc1nnc2sc(C(=O)c3cccnc3)c(N)c2c1C ?
0.83 to 6.95

May I ask what Kp at 0.25 h has been recorded for Cc1cc(C)c2c(N)c(C(=O)c3ccccc3)sc2n1 ?
0.83 to 6.95

May I ask what Kp at 0.25 h has been recorded for Cc1cc(C)c2c(N)c(C(=O)c3ccncc3)sc2n1 ?
0.83 to 6.95

May I ask what Kp at 0.25 h has been recorded for Nc1c(C(=O)c2ccncc2)sc2nc(OCc3ccncc3)c3c(c12)CCC3 ?
0.83 to 6.95

May I ask what Kp at 0.25 h has been recorded for Cc1cc(C)c2c(N)c(C(=O)c3ccc(F)c(Cl)c3)sc2n1 ?
0.83 to 6.95

May I ask what Kp at 0.25 h has been recorded for Cc1nnc2sc(C(=O)c3ccc(F)cc3F)c(N)c2c1C ?
0.83 to 6.95

May I ask what Kp at 0.25 h has been recorded for Cc1cc(C)c2c(N)c(C(=O)c3ccc(F)cc3F)sc2n1 ?
0.83 to 6.95

May I ask what Kp at 0.25 h has been recorded for Cc1cc(C)c2c(N)c(C(=O)CCc3ccncc3)sc2n1 ?
11

----------
Target Desc: Muscarinic acetylcholine receptor M4 (Rattus norvegicus) (UniProt P08485)
Experiment: Positive allosteric modulation activity at rat M4 receptor expressed in CHO cells co-expressing Gqi5 protein assessed as potentiation of EC20 acetyl choline-induced response by calcium mobilization assay relative to acetylcholine
Assay type: functional, cell-based
Recorded Metric: %max (%)
Give just the number in %; leave the unit off.

May I ask what %max has been recorded for Cc1nnc2sc(C(=O)c3cccnc3)c(N)c2c1C ?
95

May I ask what %max has been recorded for Cc1cc(C)c2c(N)c(C(=O)CCc3ccncc3)sc2n1 ?
67.9

May I ask what %max has been recorded for Cc1cc(C)c2c(N)c(C(=O)c3ccc(O)cc3)sc2n1 ?
73

----------
Target Desc: Muscarinic acetylcholine receptor M4 (Rattus norvegicus)
Sequence (P08485 whole entry): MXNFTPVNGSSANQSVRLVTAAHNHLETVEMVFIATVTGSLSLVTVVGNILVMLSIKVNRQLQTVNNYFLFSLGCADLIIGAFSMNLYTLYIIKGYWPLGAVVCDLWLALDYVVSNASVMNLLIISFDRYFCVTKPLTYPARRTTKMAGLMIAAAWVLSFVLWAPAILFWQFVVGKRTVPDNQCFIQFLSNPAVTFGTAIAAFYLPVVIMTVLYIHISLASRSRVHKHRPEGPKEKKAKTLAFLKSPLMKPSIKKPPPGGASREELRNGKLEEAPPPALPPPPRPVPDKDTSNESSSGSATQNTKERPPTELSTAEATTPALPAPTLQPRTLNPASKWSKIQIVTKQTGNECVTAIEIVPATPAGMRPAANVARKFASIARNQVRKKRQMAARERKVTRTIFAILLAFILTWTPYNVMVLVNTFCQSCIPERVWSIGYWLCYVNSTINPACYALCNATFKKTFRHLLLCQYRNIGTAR
Experiment: Positive allosteric modulation activity at rat M4 receptor expressed in CHO cells co-expressing Gqi5 protein assessed as potentiation of EC20 acetyl choline-induced response by calcium mobilization assay
Assay type: functional, cell-based
Settings: read-out: EC50
Recorded Metric: EC50

May I ask what EC50 has been recorded for Cc1cc(C)c2c(N)c(C(O)c3ccc(F)cc3F)sc2n1 (configuration not stated) ?
> 10 µM

May I ask what EC50 has been recorded for Nc1c(C(O)c2ccncc2)sc2nc(OCCN3CCOCC3)c3c(c12)CCC3 (configuration not stated) ?
> 10 µM

May I ask what EC50 has been recorded for Cc1cc(C)c2c(N)c(C(O)c3ccncc3)sc2n1 (configuration not stated) ?
> 10 µM

May I ask what EC50 has been recorded for Cc1nnc2sc(C(O)c3ccncc3)c(N)c2c1C (configuration not stated) ?
> 10 µM

May I ask what EC50 has been recorded for Cc1nnc2sc(C(O)c3ccc(F)cc3F)c(N)c2c1C (configuration not stated) ?
> 10 µM

May I ask what EC50 has been recorded for Cc1cc(C)c2c(N)c(C(O)c3ccc(F)c(Cl)c3)sc2n1 (configuration not stated) ?
> 10 µM

May I ask what EC50 has been recorded for Cc1nc2sc(C(O)c3ccccc3)c(N)c2c(C)c1Cl (configuration not stated) ?
> 10 µM

May I ask what EC50 has been recorded for Cc1nc2sc(C(=O)c3ccccc3)c(N)c2c(C)c1C ?
0.076 to 0.145 µM

May I ask what EC50 has been recorded for Cc1nnc2sc(C(O)c3ccccc3)c(N)c2c1C (configuration not stated) ?
> 10 µM

May I ask what EC50 has been recorded for Cc1cc(C)c2c(N)c(C(O)c3ccccc3)sc2n1 (configuration not stated) ?
> 10 µM

May I ask what EC50 has been recorded for Cc1nnc2sc(C(O)c3cccnc3)c(N)c2c1C (configuration not stated) ?
> 10 µM

May I ask what EC50 has been recorded for COc1ccc(C(O)c2sc3nc(C)cc(C)c3c2N)cc1 (configuration not stated) ?
> 10 µM

----------
Target Desc: UniProt P08485
Experiment: Positive allosteric modulation activity at rat M4 receptor expressed in CHO cells co-expressing Gqi5 protein assessed as potentiation of EC20 acetyl choline-induced response by calcium mobilization assay
Assay type: functional, cell-based
Settings: read-out: EC50
Recorded Metric: EC50

May I ask what EC50 has been recorded for Nc1c(C(O)c2ccncc2)sc2nc(OCc3ccncc3)c3c(c12)CCC3 (stereo not drawn) ?
> 10000 nM

May I ask what EC50 has been recorded for COc1ccc(C(O)c2sc3nnc(C)c(C)c3c2N)cc1 (stereo not drawn) ?
> 10000 nM

May I ask what EC50 has been recorded for Cc1nc2sc(C(O)c3cccnc3)c(N)c2c(C)c1Cl (stereo not drawn) ?
> 10000 nM

May I ask what EC50 has been recorded for Nc1c(C(O)c2ccncc2)sc2nc(O)c3c(c12)CCCC3 (stereo not drawn) ?
> 10000 nM

May I ask what EC50 has been recorded for Nc1c(C(=O)c2ccncc2)sc2nc(OCc3ccncc3)c3c(c12)CCC3 ?
1230 nM

May I ask what EC50 has been recorded for Cc1cc(C)c2c(N)c(C(O)c3ccc(O)cc3)sc2n1 (stereo not drawn) ?
> 10000 nM

May I ask what EC50 has been recorded for Cc1cc(C)c2c(N)c(C(=O)c3ccc(O)cc3)sc2n1 ?
380 nM

May I ask what EC50 has been recorded for Cc1nc2sc(C(=O)c3cccnc3)c(N)c2c(C)c1Cl ?
417 nM
